Target: Ataxin-2 (Homo sapiens)
Test: qHTS for Inhibitors of ATXN expression.
Assay type: functional
The campaign covered roughly 400,000 compounds. About 2,100 (0.53%) were called active. Inconclusive results (about 14%) are left out. How the calls were made is not given here. The sample as a whole holds a higher share of actives than the screen did.
Please reply with one of these outcomes: active, inactive

Here are 4 compounds together with their reported answers.
* Cc1nnc(NC(=O)CSc2cn(CCNC(=O)c3ccccc3)c3ccccc23)s1 | inactive
* CC(C)(C)c1ccc(C2Sc3ccccc3NC3=C2C(=O)c2ccccc23)cc1 (stereo not given) | active
* O=C(CSc1cn(CCNC(=O)c2cccc(C(F)(F)F)c2)c2ccccc12)Nc1ccc2c(c1)OCCO2 | active
* Clc1ccc2oc(-c3ccccc3)cc(=NCCCN3CCOCC3)c2c1 | inactive

Switching to the query record.
What was the test verdict on CCn1c(CNC(=O)c2ccc3c(c2)OCO3)nnc1SCC(=O)Nc1ccccc1F ?
inactive

###

Molecular target: Ataxin-2 (Homo sapiens)
Experiment: qHTS for Inhibitors of ATXN expression.
Assay type: functional
Among all 400,000 compounds or so, about 2,100 (0.53%) were called active. Another 14% or so got no clear call; they are omitted. The rule behind the calls is not given here. The sample as a whole holds a higher share of actives than the screen did.
Choose the fitting class; nothing outside active, inactive is accepted.

Worked set:
• C=CCn1c(=O)c(C#N)cc2c(=O)n3ccccc3nc21 = inactive
• Cc1ccc(OCCn2cnc3ccccc3c2=O)c([N+](=O)[O-])c1 = inactive
• CCCCCOc1ccc(CSC2=NCCN2)cc1[N+](=O)[O-] = active
• NC(=O)c1nsc(C(=O)N(c2ccccc2)C(C(=O)NCC2CCCO2)c2ccc3ncccc3c2)c1N (stereo unspecified) = inactive
• CCN1CCN(C(c2ccc(C(F)(F)F)cc2)c2ccc3cccnc3c2O)CC1 (stereo unspecified) = inactive

State the result this test recorded for COC(=O)C(N)Cc1ccc(OC)c([N+](=O)[O-])c1 (stereo unspecified) .
inactive

###

Target: Ataxin-2 (Homo sapiens)
Experiment: qHTS for Inhibitors of ATXN expression.
Type: functional
Out of some 400,000 compounds screened, about 2,100 (0.53%) were called active. Not shown: some 14% with an inconclusive outcome. The rule behind the calls is not given here. The entries come from a sample that favours actives as a whole.
Entry note: the call must match one of YES (active), NO (inactive)

Use the examples below as a reference point.
- Cc1cccc(C)c1Nc1c(-c2ccc(N3CCOCC3)cc2)nc2cnccn12: NO
- Cc1cc(NC(=O)CCC(=O)N(CC(=O)NC2CCCC2)Cc2ccccc2Cl)no1: NO
- COCCNc1nc(NCc2ccc(NC(C)=O)cc2)c2sc(-c3ccccc3)cc2n1: YES
- CCCCn1nc(NC(=O)CCC)c2cc3cc(OC)ccc3nc21: NO
- COc1ccc(Cc2c(-c3ccco3)nc3ccc(Br)cn23)c(C)c1: YES
- CCc1cc(=O)oc2c(C)c(O[C@@H]3O[C@H](CO)[C@@H](O)[C@H](O)[C@H]3O)ccc12: NO
- O=C(O)CCNc1nc(-c2ccccc2)c2cc(Br)ccc2n1: NO
- COc1ccc2oc(=O)c(C(=O)NC3CCCCCC3)cc2c1: NO

Per the assay record, what outcome was assigned to C=C1C(=O)C2=CC1CCC(=O)C1(C)CCC(OC(C)=O)C(C)(C)C1CC2O (stereo not drawn) ?
YES

Please indicate how the test categorized Clc1cccc(Cc2c(-c3ccco3)nc3ccc(Cl)cn23)c1 .
YES

Can you look up the reported call for CC(=O)Nc1ccc(S(=O)(=O)Nc2nc3nc(-c4ccccc4)cc(-c4ccccc4)n3n2)cc1 for me?
NO

In this assay, the call recorded for CCN(CC(=O)NCc1cccs1)C(=O)/C=C/c1ccc(F)cc1 was what?
NO

Outcome logged for O=C(Oc1cc2oc(=O)c3c(c2cc1Cl)CCCC3)c1cccs1 in this assay:
NO

What call does the record list for COc1cccc(/C=C2\SC(=S)N(CCCC(=O)N3CCCCC3CCO)C2=O)c1 (stereo not drawn) ?
YES

Test call, this molecule: COc1ccc(C(=O)/C=C/C(=O)N(Cc2ccccc2OC)C(C(=O)NC2CCCCC2)c2ccncc2)c(O)c1 (stereo not drawn)
YES

Assay result, entry CCCCNc1c(-c2ccc(-c3ccc(C(C)=O)cc3)c(OC)c2)nc2cnccn12 — outcome?
NO

So what was the verdict on c1ccc2c(Nc3ccc(N4CCOCC4)cc3)nc(N3CCOCC3)nc2c1 in this test?
NO

Write down the call the test reported for this molecule. Item: CCCn1c(=N)c(S(=O)(=O)c2ccccc2)cc2c(=O)n3ccccc3nc21
NO

Which outcome was assigned to CCCCNC(=O)CCN1N=C(c2ccccc2)CCC1=O in this test?
NO
